MEASUREMENT_TARGET: MMP-7 (Homo sapiens, UniProt P09237)
Construct: purchased SIGMA CC1059
Sequence (P09237 95-267): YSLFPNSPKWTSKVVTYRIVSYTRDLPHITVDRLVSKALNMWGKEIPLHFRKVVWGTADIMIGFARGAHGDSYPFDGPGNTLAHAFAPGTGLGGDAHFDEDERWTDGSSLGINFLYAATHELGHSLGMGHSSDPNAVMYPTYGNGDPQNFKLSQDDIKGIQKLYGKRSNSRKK
METHOD_DESCRIPTION: FRET peptide cleavage efficiency with MMP-7 (standard pH 7.5; also pH 6.5)
Assay type: biochemical
RUN_CONDITIONS: t = 120 min; standard conditions (Table 8)
Square brackets hold non-standard residues; d marks the D form. Ends that are not written are not given here. Tyr(3-NO2) = N[C@@H](Cc1ccc(O)c([N+](=O)[O-])c1)C(=O)O; Nle = CCCC[C@H](N)C(=O)O; 2Abz = Nc1ccccc1C(=O)O
% cleavage MMP-7 t = 120 min overview
Just the number in %, nothing appended.

[[record]]
substance = "SGRVAPYMLQG ([2Abz]SGRVAPYMLQG[Tyr(3-NO2)]-NH2) [LNK042]"
measurement_target = "MMP-7 (Homo sapiens, UniProt P09237)"
assay_metric = "% cleavage MMP-7 t = 120 min"
endpoint_value = 100

[[record]]
substance = "RGRKSPY-Nle-LQG ([2Abz]RGRKSPY[Nle]LQG[Tyr(3-NO2)]-NH2) [LNK038]"
measurement_target = "MMP-7 (Homo sapiens, UniProt P09237)"
assay_metric = "% cleavage MMP-7 t = 120 min"
endpoint_value = 92

[[record]]
substance = "RGRKSPANLVG ([2Abz]RGRKSPANLVG[Tyr(3-NO2)]-NH2) [LNK034]"
measurement_target = "MMP-7 (Homo sapiens, UniProt P09237)"
assay_metric = "% cleavage MMP-7 t = 120 min"
endpoint_value = 100

[[record]]
substance = "RGRKSPYMLQG ([2Abz]RGRKSPYMLQG[Tyr(3-NO2)]-NH2) [LNK037]"
measurement_target = "MMP-7 (Homo sapiens, UniProt P09237)"
assay_metric = "% cleavage MMP-7 t = 120 min"
endpoint_value = 88

[[record]]
substance = "RGRKPY-Nle-LQG ([2Abz]RGRKPY[Nle]LQG[Tyr(3-NO2)]-NH2) [LNK036]"
measurement_target = "MMP-7 (Homo sapiens, UniProt P09237)"
assay_metric = "% cleavage MMP-7 t = 120 min"
endpoint_value = 100

[[record]]
substance = "SGRVQPLVD (not fully specified (N-terminus, C-terminus)) [LNK047]"
measurement_target = "MMP-7 (Homo sapiens, UniProt P09237)"
assay_metric = "% cleavage MMP-7 t = 120 min"
endpoint_value = 88


Inquiry: Given the substance RGRKVANLVG ([2Abz]RGRKVANLVG[Tyr(3-NO2)]-NH2) [LNK031] , what is its reported % cleavage MMP-7 t = 120 min?
Reply text: 93

Inquiry: Given the substance RGRKSQPLVD ([2Abz]RGRKSQPLVD[Tyr(3-NO2)]-NH2) [LNK041] , what is its reported % cleavage MMP-7 t = 120 min?
Reply text: 9

Inquiry: Given the substance RGRKPYMLQG ([2Abz]RGRKPYMLQG[Tyr(3-NO2)]-NH2) [LNK035] , what is its reported % cleavage MMP-7 t = 120 min?
Reply text: 95
